Let's look at some compounds and their measured Kd.
molecular target: Influenza A virus M2 proton channel (A/TW/4845/1999 H1N1); test: M2 proton channel binding, NMR based, influenza A virus H1N1 strain (AID 1549); conditions: NMR binding screen, M2 protein
Calls of active or inactive are those of the source. How the calls were made is not given here.

Cc1cc(C)n(/N=C\c2cccs2)c(=O)c1C(N)=O :: > 4 mM (inactive)
COc1cnn(Cc2ccccc2)c(=O)c1Cl :: > 4 mM (inactive)

Inquiry: Suppose we examine the compound NC(=O)C1(S(=O)(=O)c2ccccc2)CC1 ; what Kd value has been reported?
Reply text: > 4 mM (inactive)

Inquiry: Please report the recorded Kd for COc1cc2c(cc1O)[C@@H](Cc1ccc(O)cc1)[N+](C)(C)CC2 .
Reply text: > 4 mM (inactive)

Inquiry: What value of Kd has been recorded for this entry: NC(=O)CC1Nc2cccc3cccc(c23)NC1=O (centres undefined)
Reply text: > 4 mM (inactive)

Inquiry: # query: Kd of entry Cc1nc2ccccc2c(=O)[nH]1
Reply text: > 4 mM (inactive)

Inquiry: For the compound shown here, CNC(=S)Nc1ncn(Cc2cccc(F)c2)n1 , give the reported Kd.
Reply text: > 4 mM (inactive)

Inquiry: Using the record for OCc1ccc(-n2ccnc2)cc1 , report its Kd.
Reply text: > 4 mM (inactive)

Inquiry: What value of measured Kd is listed for CC(C)n1c(-c2ccncc2)n[nH]c1=S ?
Reply text: > 4 mM (inactive)

Inquiry: Look up Kd for this compound: O=c1[nH]cc(CN2CCOCC2)c(=O)[nH]1
Reply text: > 4 mM (inactive)

Inquiry: What value of measured Kd is listed for Nc1ncnc2c1ncn2[C@@H]1O[C@H](CO)[C@@H](O)[C@H]1O ?
Reply text: > 4 mM (inactive)

Inquiry: Form field: reported Kd of CCSc1nc2ccccc2n1CC(N)=O
Reply text: > 4 mM (inactive)

Inquiry: Looking for the measured Kd of Cc1cc(=O)n2ncn(Cc3ccccc3)c2n1 , can you help?
Reply text: > 4 mM (inactive)

Inquiry: Given the entry Nc1cccc(-n2cnnn2)c1 , report its measured Kd.
Reply text: > 4 mM (inactive)

Inquiry: Fill blank: measured Kd of the compound CCc1noc(C)c1C(=O)N1CCOCC1 is ____.
Reply text: > 4 mM (inactive)

Inquiry: # get_value(readout='Kd', item= COc1ccccc1C(=O)NC1CCN(C)CC1 )
Reply text: > 4 mM (inactive)

Inquiry: What does the data say about its Kd? Entry: Cc1ccccc1-n1c(N)cc(=O)[nH]c1=S
Reply text: > 4 mM (inactive)

* * *

target: Influenza A virus M2 proton channel (A/TW/4845/1999 H1N1); test: M2 proton channel binding, NMR based, influenza A virus H1N1 strain (AID 1549); conditions: NMR binding screen, M2 protein
Calls of active or inactive are those of the source. The rule behind the calls is not given here.
observed.property: Kd

Cc1nnc2n(c1=O)N=C(c1ccccc1)CS2 :: > 4 mM (inactive)
O=C(Nc1cccnc1)Nc1ccc2c(c1)OCO2 :: > 4 mM (inactive)
CCN1CCC(NC2CCCCNC2=O)CC1 (stereo unspecified) :: > 4 mM (inactive)

Inquiry: What value of Kd on Influenza A virus M2 proton channel (A/TW/4845/1999 H1N1) does O=C1CSC(=Nc2cc(Cl)ccc2Cl)N1 have?
Reply text: > 4 mM (inactive)

Inquiry: Lookup: Kd / Influenza A virus M2 proton channel (A/TW/4845/1999 H1N1) / Nc1ncc2[nH]cnc2n1
Reply text: > 4 mM (inactive)

Inquiry: Give Kd (Influenza A virus M2 proton channel (A/TW/4845/1999 H1N1)) of the following molecule: COCc1nn2c(N)c(C#N)cnc2c1-c1ccccc1
Reply text: > 4 mM (inactive)

Inquiry: Lab note: need Kd with Influenza A virus M2 proton channel (A/TW/4845/1999 H1N1) for entry O=C1CCc2ccccc2CN1 , please look it up.
Reply text: > 4 mM (inactive)

Inquiry: I'm curious: which Kd was measured for C/C=C1\[C@H]2C=C(C)C[C@]1(N)c1ccc(=O)[nH]c1C2 tested on Influenza A virus M2 proton channel (A/TW/4845/1999 H1N1)?
Reply text: > 4 mM (inactive)

Inquiry: Which measured Kd belongs to COC(=O)c1oc2ccc(Cl)cc2c1NC(C)=O , tested on Influenza A virus M2 proton channel (A/TW/4845/1999 H1N1)?
Reply text: > 4 mM (inactive)

* * *

molecular target: Influenza A virus M2 proton channel (A/TW/4845/1999 H1N1); assay: M2 proton channel binding, NMR based, influenza A virus H1N1 strain (AID 1549); details: NMR binding screen, M2 protein
Activity calls are given as the source filed them. The rule behind the calls is not given here.
# Lookup of reported Kd keyed by entry

Here are 5 compounds together with their reported answers.
CN(C)C(=O)c1ccccc1-c1ccccc1 :: > 4 mM (inactive)
CCN=Cc1c(O)n(-c2ccccc2C)c(=O)[nH]c1=O :: > 4 mM (inactive)
CCSc1nc(=S)n(CC)c(C)c1C(C)=O :: > 4 mM (inactive)
O=S(=O)(O)c1cc[n+]([O-])cc1 :: > 4 mM (inactive)
CC(C)NC(=O)c1cc(-n2cnnc2)ccc1Cl :: > 4 mM (inactive)

Inquiry: Find the measured Kd: item Cc1cc(C)c(-c2cc(C(F)(F)F)no2)c(=O)[nH]1 , target or system Influenza A virus M2 proton channel (A/TW/4845/1999 H1N1).
Reply text: > 4 mM (inactive)

Inquiry: Provide the documented Kd with Influenza A virus M2 proton channel (A/TW/4845/1999 H1N1) as the system for Oc1ccc2nonc2c1
Reply text: > 4 mM (inactive)

* * *

target: Influenza A virus M2 proton channel (A/TW/4845/1999 H1N1); assay: M2 proton channel binding, NMR based, influenza A virus H1N1 strain (AID 1549); conditions: NMR binding screen, M2 protein
Activity calls are given as the source filed them. How the calls were made is not given here.
observed.property: Kd

COc1ccc2c(c1)O[C@H]1c3ccc(OC)cc3OC[C@@H]21 :: > 4 mM (inactive)
Cn1c(O)c(/C=C2\C=CC=N2)c(=O)[nH]c1=S :: > 4 mM (inactive)
CC(=O)Oc1ccc(/C=C/c2cc(OC(C)=O)cc(OC(C)=O)c2)cc1 :: > 4 mM (inactive)

Inquiry: Quick check: Kd on Influenza A virus M2 proton channel (A/TW/4845/1999 H1N1), item O=C1NC(=S)N/C1=C\c1cccc([N+](=O)[O-])c1 ?
Reply text: > 4 mM (inactive)

Inquiry: Test system Influenza A virus M2 proton channel (A/TW/4845/1999 H1N1); read-out Kd; what value for COC(=O)[C@@H]1OC(=O)[C@H]2O[C@@]23[C@@]1(C)CCC1[C@@]2(C)CCC(=O)C(C)(C)C2C[C@@H](OC(C)=O)[C@]13C (stereo partly specified) ?
Reply text: > 4 mM (inactive)

Inquiry: Influenza A virus M2 proton channel (A/TW/4845/1999 H1N1) / Kd / CC(=O)Nc1c(Cl)cnn(-c2ccccc2)c1=O : value?
Reply text: > 4 mM (inactive)

Inquiry: Item: CCOC(=O)c1c(C)n([O-])c2ccccc2[n+]1=O Test system: Influenza A virus M2 proton channel (A/TW/4845/1999 H1N1) Read-out: Kd Value: ?
Reply text: > 4 mM (inactive)

* * *

# Kd listing for each entry below
target: Influenza A virus M2 proton channel (A/TW/4845/1999 H1N1); test: M2 proton channel binding, NMR based, influenza A virus H1N1 strain (AID 1549); details: NMR binding screen, M2 protein
Activity calls are given as the source filed them. No rule for the calls is given here.

Example compounds with recorded Kd:
O=C(O)c1ccnn1-c1ccccc1 :: > 4 mM (inactive)
Nc1ncnc2nc[nH]c12 :: > 4 mM (inactive)
O=C(O)Cn1cc(C(=O)c2cccs2)c2ccccc21 :: > 4 mM (inactive)
Cc1cc(C(F)(F)F)n2nc(C(=O)O)c(Cl)c2n1 :: > 4 mM (inactive)
c1ccc(-n2nnnc2-n2cnc3ccccc32)cc1 :: > 4 mM (inactive)
CC(=O)c1cc(C)ccc1OC(=O)c1cccnc1 :: > 4 mM (inactive)
COc1ccc(-c2c(OC)c3c(OC)c4c(cc3oc2=O)OC(C)(C)C=C4)cc1 :: > 4 mM (inactive)
CC(=O)Nc1ccc(Nc2nnc(C)c(=O)[nH]2)cc1 :: > 4 mM (inactive)

Query compound follows.
Inquiry: # query: Kd of entry Cc1cc(=O)c2c(O)cc(O)c(C)c2o1
Reply text: > 4 mM (inactive)

* * *

target: Influenza A virus M2 proton channel (A/TW/4845/1999 H1N1); assay: M2 proton channel binding, NMR based, influenza A virus H1N1 strain (AID 1549); conditions: NMR binding screen, M2 protein
Active and inactive are the calls of the source. No rule for the calls is given here.
observed.property: Kd

O=C(/C(=N\O)n1cncn1)c1ccccc1Cl :: > 4 mM (inactive)
CC(C)=CCc1c(O)cc2oc(C)cc(=O)c2c1O :: > 4 mM (inactive)
COc1cc2c(cc1O)CCNC2C (configuration not stated) :: > 4 mM (inactive)
O=S(=O)(CCN1CCCC1)c1ccccc1 :: > 4 mM (inactive)

Inquiry: What value of Kd has been recorded for this entry: COc1c2occc2c(OC)c2c(=O)cc(C)oc12
Reply text: > 4 mM (inactive)

Inquiry: Give the measured Kd of Cc1cc(OC(=O)c2c(C)cc(O)cc2O)cc(O)c1C(=O)O .
Reply text: > 4 mM (inactive)

Inquiry: Record request: Kd value, item CC1(C)C2CC[C@]3(C)C(C(=O)C=C4[C@H]5C[C@@](C)(C(=O)O)CC[C@]5(C)CC[C@]43C)[C@@]2(C)CC[C@@H]1O (some centres not stated)
Reply text: > 4 mM (inactive)

Inquiry: Consider the molecule COc1cc(OC)c2c(=O)c(-c3ccccc3)coc2c1 and give its measured Kd.
Reply text: > 4 mM (inactive)

Inquiry: Bench note: what Kd did COc1c2occc2cc2ccc(=O)oc12 show?
Reply text: > 4 mM (inactive)

Inquiry: For the molecule COc1ccc(O)c(-c2cn[nH]c2-c2cccs2)c1 , what Kd is on record?
Reply text: > 4 mM (inactive)

Inquiry: For the molecule shown here, O=C(O)CCCCCCCCCCCCC1C=CCC1 (configuration not stated) , give the reported Kd.
Reply text: > 4 mM (inactive)

Inquiry: Kd for OCC(O)C(O)C(O)CO (configuration not stated) ?
Reply text: > 4 mM (inactive)

Entry source: PubChem BioAssay AID1549
